Tested on: 786-0 renal
Assay: NCI tumour cell line growth inhibition, 48 h
Measured TGI accompanies every entry in the list below.
observation_type: TGI (µM)

                                   molecule  experimental_target  observation_type  operator  measured_result
0          COC(=O)CN1CCN(c2cccc3c2CCCC3)CC1          786-0 renal               TGI         >              100
1  CCCC(=O)Nc1cc(C(=O)N2C[C@H]3C[C@@]34C2=CC(=O)c2[nH]cc(C)c24)n(COC)c1          786-0 renal               TGI         =             5.82
2  COC(=O)CC1(O)C(=O)OCc2c1cc1n(c2=O)Cc2c-1nc1ccccc1c2OC (stereo not given)          786-0 renal               TGI         =            0.813
3                O=C(NNC(=O)c1ccco1)c1ccco1          786-0 renal               TGI         >              100
4  Nc1ncn([C@H]2CC(O)[C@@H](CO)S2)c(=O)n1 (stereo not given in full)          786-0 renal               TGI         >              100
5  COC(=O)c1c(C)nc(C)c2c1C(=O)C(Br)=C(NCc1ccccc1)C2=O          786-0 renal               TGI         =             16.3
6                   S=c1ssnc1-c1cc2ccccc2o1          786-0 renal               TGI         =             34.8
7  COc1ccc(/C=C/C(=N\NC(=O)c2ccccc2)c2sc(Nc3ccc([N+](=O)[O-])cc3)nc2C)cc1OC          786-0 renal               TGI         =             26.5
8  COC1OC2COC(=O)c3cc(O)c(O)c(O)c3-c3c(cc(O)c(O)c3O)C(=O)OC2C(O)C1O (stereo not given)          786-0 renal               TGI         >              100
9  COC(=O)[C@@H]1c2c(oc3cc(CO)cc(O)c3c2=O)C=C[C@H]1O          786-0 renal               TGI         =               12

----------
Test system: HS 578T breast
Assay: NCI tumour cell line growth inhibition, 48 h; in the data active = GI50 below about 0.43 µM; inactive = the rest
Labels: y = active, n = inactive

compound	experimental_target	class
Cc1ccc(NCCNCC(C)(C)O)c2c(=O)c3ccc(Cl)cc3sc12	HS 578T breast	n
COC(=O)[C@@]12OC[C@]34[C@H]([C@@H](O)[C@@H]1O)[C@@]1(C)CC(=O)C(O)=C(C)[C@@H]1C[C@H]3OC(=O)[C@H](OC(=O)/C=C(\C)C(C)C)[C@@H]24	HS 578T breast	y
Cc1ccc(S(=O)(=O)OC[C@@]2(C)CC[C@]3(C)CC[C@]4(C)C(=C3C2)C=C[C@@H]2[C@@]3(C)CCCNC(C)(C)[C@@H]3CC[C@]24C)cc1	HS 578T breast	n
CN(C)CCCN1c2ccccc2Sc2ccc(C(F)(F)F)cc21	HS 578T breast	n
Nc1ncn([C@H]2CC(O)[C@@H](CO)S2)c(=O)n1 (stereo partly drawn)	HS 578T breast	n
CCCC(=O)Nc1cc(C(=O)N2C[C@H]3C[C@@]34C2=CC(=O)c2[nH]cc(C)c24)n(COC)c1	HS 578T breast	y
Clc1ccc(C=Nc2ccc(-c3nc4ccccc4[nH]3)cc2)cc1	HS 578T breast	n
O=C(Nc1cccc(-n2ccc3c(NC(=O)c4ccccc4)ncnc32)c1)Nc1ccc(Cl)c(C(F)(F)F)c1	HS 578T breast	n

----------
Measured TGI accompanies every entry in the list below.
System: A498 renal
Assay: NCI tumour cell line growth inhibition, 48 h
observation_type: TGI

                                   compound  observation_type  measured_result
0  Cn1c(=O)c(-c2ccccc2Cl)cc2cnc(NC3CCOCC3)nc21               TGI          15.5 µM
1  O=C(/C=C/c1ccc(OCc2ccccc2)cc1)NCc1ccc(C(=O)NCCc2ccccc2)cc1               TGI         > 100 µM
2  CN(C(=O)Cc1ccccc1)n1cn[n+](CC(=O)OC(C)(C)C)c1               TGI          > 10 µM
3  COc1cc(C(=O)c2cnc(-c3c[nH]c4cccc(C)c34)[nH]2)cc(OC)c1OC               TGI       0.00774 µM
4  C=C1OC2OC(C)C(NC(=O)OCC(Cl)(Cl)Cl)C(OC(C)=O)C2O1 (centres undefined)               TGI         > 100 µM
5  Cc1nn2c(=O)c([N+](=O)[O-])c(/C=C/c3ccc(F)cc3)nc2s1               TGI          35.6 µM
6  CC1OC(OC2C(O)CC(OC3C(O)CC(OC4CCC5(C)C(CCC6C5CCC5(C)C(C7=CC(=O)OC7)C(O)CC65O)C4)OC3C)OC2C)CC(O)C1O (centres undefined)               TGI         0.908 µM
7  Clc1ccc2c(NCCNc3nc(N4CCOCC4)nc4ccccc34)ccnc2c1               TGI          4.62 µM
8  CN(C)S(=O)(=O)c1ccc2[nH]c(O)c(C3=Nc4ccccc4C3=O)c2c1               TGI          97.4 µM

----------
Tested on: HOP-92 NSCLC
Test: NCI tumour cell line growth inhibition, 48 h
Measured TGI accompanies every entry in the list below.

molecule	TGI
CN1CCCCC1CCN1c2ccccc2Sc2ccc(Br)cc21 (stereo not given)	4.72 µM
CC1CC(=O)N(N(C)C)C2(C#N)C(=O)N=C(N)C12C#N (stereo not given)	> 100 µM
CC(=O)CCC1(c2ccccc2)OC(=O)C(C#N)=C1c1ccccc1 (stereo not given)	> 100 µM
NC(CCC(=O)c1ccccn1)C(=O)O (stereo not given)	> 100 µM
C=C1C(=O)OC2CC(C)C(/C=C/C(C)=O)=CCC12 (stereo not given)	> 100 µM
CC(=O)OCC1OC(OCCCOP(=O)(OCCC#N)OCC2OC(n3cnc4c(N)ncnc43)C(OC(=O)c3ccccc3)C2OC(=O)c2ccccc2)C(OC(C)=O)C(OC(C)=O)C1OC(C)=O (stereo not given)	> 100 µM
Cc1cc(Cl)ccc1N=C1NC(=O)C(CC(=O)Nc2cccc(Cl)c2)S1 (stereo not given)	69.8 µM
C/C(=C\C(=O)Nc1ccc2n[nH]nc2c1)Nc1ccc2n[nH]nc2c1	> 100 µM
CN1NC(c2ccc(Cl)cc2)=C(C#N)C(=O)CC1c1ccccc1 (stereo not given)	> 100 µM
COc1cccc(/C=C2\N=C(c3ccccc3)OC2=O)c1	> 100 µM

----------
System: SF-268 CNS
Test: NCI tumour cell line growth inhibition, 48 h
observation_type: TGI

                                    molecule  measured_result
 0          CCOC(=O)C1=C(O)CC(=O)N=C1N1CCCC1         > 100 µM
 1  COc1cccc(C2CC(=O)Nc3c2c(C)nn3-c2nc3ccccc3[nH]2)c1OC (stereo not drawn)          61.3 µM
 2  CCOP1(=O)CC(C)=C(Cl)C(OC)C1 (stereo not drawn)         > 100 µM
 3  Nc1ncn([C@H]2CC(O)[C@@H](CO)S2)c(=O)n1 (stereo partly drawn)         > 100 µM
 4  Cc1cc(N2CCC(N3CCCC3)CC2)nc(/N=C(\N)Nc2ccc(Cl)c(Cl)c2)n1          6.66 µM
 5  CC(C)=CCC[C@@H](C)C1=C(O)C(N[C@H](C)c2ccccc2)=C(C)C(=O)C1=O        > 64.3 µM
 6  COC(=O)CC1(O)C(=O)OCc2c1cc1n(c2=O)Cc2c-1nc1ccccc1c2OC (stereo not drawn)          > 34 µM
 7  CCOC(=O)N1c2ccccc2C(C)=CC(C)C1C (stereo not drawn)         > 100 µM
 8                O/N=C\c1c2c(cc3c1CCC3)CCC2         > 100 µM
 9          O=C(/C=C/c1ccccc1)c1ccc(Cl)cc1Cl          59.8 µM
10                CCCOC(=O)c1cc(O)c(O)c(O)c1         > 100 µM
11  CC1OC(OC2C(O)CC(OC3C(O)CC(OC4CCC5(C)C(CCC6C5CCC5(C)C(C7=CC(=O)OC7)C(O)CC65O)C4)OC3C)OC2C)CC(O)C1O (stereo not drawn)         0.607 µM
12           CC(=O)c1csc2c1C(=O)c1ccccc1C2=O          12.9 µM

Where these numbers come from: PubChem BioAssay (NCI)
